- tested.target: human mPGES-1 (Homo sapiens)
- Construct: made in house; host or cells: COS-1 cells (transient transfection; microsomal fraction used as enzyme)
- Sequence (O14684 1-152): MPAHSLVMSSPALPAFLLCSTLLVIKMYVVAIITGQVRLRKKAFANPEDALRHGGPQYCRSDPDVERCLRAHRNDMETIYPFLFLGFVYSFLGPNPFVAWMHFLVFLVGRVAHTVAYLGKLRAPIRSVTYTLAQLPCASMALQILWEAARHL
- method.notes: Test for mPGES-1 inhibitory activity (microsomal enzyme, PGE2 EIA)
- Assay type: biochemical
- reported.conditions: microsomes of COS-1 cells transfected with human mPGES-1 cDNA; PGH2 1 μM; 4° C., 4 minutes; PGE2 by EIA; read-out: h mPGES1 IC50
measured.attribute: IC50

Consider the worked cases shown below.
molecule="O=c1cc(C(F)(F)F)nc(-c2c(C(F)(F)F)ccc(CNC(=O)[C@H]3C[C@@H](OCc4ccc(F)c(Cl)c4)C3)c2F)[nH]1 [Example 158]" measurement="< 1 nM"
molecule="CCc1cc(=O)[nH]c(-c2c(C(F)(F)F)ccc(CNC(=O)[C@H]3C[C@H](OCc4cc(F)cc(Cl)c4)C3)c2F)n1 [Example 211]" measurement="9.3 nM"
molecule="O=c1cc(C(F)(F)F)nc(-c2c(C(F)(F)F)ccc(CNC(=O)[C@H]3C[C@@H](OCc4cc(F)cc(Cl)c4)C3)c2F)[nH]1 [Example 160]" measurement="< 1 nM"
molecule="O=C(NCc1ccc(C(F)(F)F)c(-c2nc(C(F)(F)F)cc(=O)[nH]2)c1F)C1CCC(Oc2ccc(C(F)(F)F)cn2)CC1 (stereo not drawn) [Example 248]" measurement="< 1 nM"
molecule="CCc1cc(=O)[nH]c(-c2c(C(F)(F)F)ccc(CNC(=O)[C@H]3C[C@H](OCc4ccc(F)c(Cl)c4)C3)c2F)n1 [Example 210]" measurement="7.9 nM"

Note: attention shifts to another entry.
Query: Could you tell me which IC50 is on file for CCc1cc(=O)[nH]c(-c2c(C(F)(F)F)ccc(CNC(=O)[C@H]3C[C@H](OCc4ccccc4Cl)C3)c2F)n1 [Example 195] ?
Reply: < 1 nM

---

# IC50 per record follows
- tested.target: human mPGES-1 (Homo sapiens, UniProt O14684)
- Construct: made in house; host or cells: COS-1 cells (transient transfection; microsomal fraction used as enzyme)
- method.notes: Test for mPGES-1 inhibitory activity (microsomal enzyme, PGE2 EIA)
- Format: biochemical
- reported.conditions: microsomes from COS-1 cells transfected with human mPGES-1 cDNA; substrate PGH2 1 μM; 4° C., 4 minutes; PGE2 measured by EIA; read-out: h mPGES1 IC50
Value expressed in nM; do not type the unit.

Consider the worked cases shown below.
smiles_code=Cc1nc(-c2c(C(F)(F)F)ccc(CNC(=O)C3CCN(c4ncc(Cl)cc4F)CC3)c2F)[nH]c(=O)c1F measurement=15
smiles_code=O=c1cc(C(F)(F)F)nc(-c2c(C(F)(F)F)ccc(CNC(=O)[C@H]3CC[C@H](OCc4cccc(C(F)(F)F)c4)CC3)c2F)[nH]1 measurement=29
smiles_code=CCc1cc(=O)[nH]c(-c2c(C(F)(F)F)ccc(CNC(=O)C3CCN(c4ccc(C(F)(F)F)cn4)CC3)c2F)n1 measurement=4.8

Query: Could you tell me which IC50 is on file for O=C(NCc1ccc(C(F)(F)F)c(-c2nc(C(F)(F)F)cc(=O)[nH]2)c1F)C1CN(c2cccc(C(F)(F)F)n2)C1 ?
Reply: 4.1

---

- tested.target: human mPGES-1 (Homo sapiens)
- Construct: made in house; host or cells: COS-1 cells (transient transfection; microsomal fraction used as enzyme)
- method.notes: Test for mPGES-1 inhibitory activity (microsomal enzyme, PGE2 EIA)
- Type: biochemical
- reported.conditions: microsomes of COS-1 cells transfected with human mPGES-1 cDNA; PGH2 1 μM; 4° C., 4 minutes; PGE2 by EIA; read-out: h mPGES1 IC50
measured.attribute: IC50 (nM)
Value expressed in nM; do not type the unit.

smiles_code=O=c1cc(C(F)F)nc(-c2c(C(F)(F)F)ccc(CNC(=O)[C@H]3C[C@H](OCc4cc(F)cc(F)c4)C3)c2F)[nH]1 readout_units=nM measurement=1.3

Note: attention shifts to another entry.
Query: Could you tell me which IC50 is on file for O=c1cc(C(F)F)nc(-c2c(C(F)(F)F)ccc(CNC(=O)[C@H]3C[C@H](OCc4ccc(C(F)(F)F)cc4)C3)c2F)[nH]1 ?
Reply: 8.8

---

- tested.target: human mPGES-1 (Homo sapiens)
- Construct: made in house; host or cells: COS-1 cells (transient transfection; microsomal fraction used as enzyme)
- Sequence (O14684 1-152): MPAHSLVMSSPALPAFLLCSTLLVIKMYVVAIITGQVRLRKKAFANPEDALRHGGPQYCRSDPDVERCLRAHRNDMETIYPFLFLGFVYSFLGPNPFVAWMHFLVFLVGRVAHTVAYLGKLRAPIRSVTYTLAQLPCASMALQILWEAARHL
- method.notes: Test for mPGES-1 inhibitory activity (microsomal enzyme, PGE2 EIA)
- Format: biochemical
- reported.conditions: microsomes of COS-1 cells transfected with human mPGES-1 cDNA; PGH2 1 μM; 4° C., 4 minutes; PGE2 by EIA; read-out: h mPGES1 IC50
# IC50 per record follows
Value expressed in nM; do not type the unit.

Consider the worked cases shown below.
smiles_code=Cc1nc(-c2c(C(F)(F)F)ccc(CNC(=O)[C@H]3C[C@H](OCc4cccc(Cl)c4)C3)c2F)[nH]c(=O)c1F measurement=11
smiles_code=Cc1nc(-c2c(C(F)(F)F)ccc(CNC(=O)[C@H]3C[C@H](OCc4cccc(C(F)(F)F)c4)C3)c2F)[nH]c(=O)c1F measurement=16

Query: Could you tell me which IC50 is on file for O=c1cc(C(F)(F)F)nc(-c2c(C(F)(F)F)ccc(CNC(=O)[C@H]3C[C@@H](Oc4cccc(Cl)c4)C3)c2F)[nH]1 ?
Reply: 4.6

---

# pIC50 per record follows
- tested.target: human mPGES-1 (Homo sapiens)
- Construct: made in house; host or cells: COS-1 cells (transient transfection; microsomal fraction used as enzyme)
- method.notes: Test for mPGES-1 inhibitory activity (microsomal enzyme, PGE2 EIA)
- Type: biochemical
- reported.conditions: microsomes from COS-1 cells transfected with human mPGES-1 cDNA; substrate PGH2 1 μM; 4° C., 4 minutes; PGE2 measured by EIA; read-out: h mPGES1 IC50
pIC50: −log10 of the molar value.

Consider the worked cases shown below.
molecule="O=C(NCc1ccc(C(F)(F)F)c(-c2nc(C(F)F)cc(=O)[nH]2)c1F)C1CCN(c2ccc(Cl)c(Cl)c2)CC1 [Example 84]" measurement=8.28
molecule="Cc1cccc2ccc(N3CCC(C(=O)NCc4ccc(Cl)c(-c5nccc(=O)[nH]5)c4)CC3)nc12 [Example 8]" measurement=9.19
molecule="Cc1cccc2ccc(N3CCC(C(=O)NCc4ccc(Cl)c(-c5nc(C(F)(F)F)cc(=O)[nH]5)c4F)CC3)nc12 [Example 31]" measurement="> 9.00"
molecule="CCc1nc(-c2c(C(F)(F)F)ccc(CNC(=O)C3CCN(c4ccc(Cl)cc4)CC3)c2F)[nH]c(=O)c1F [Example 79]" measurement=7.25
molecule="CCc1nc(-c2c(C(F)(F)F)ccc(CNC(=O)C3CCN(c4ccc(OC(F)(F)F)cc4)CC3)c2F)[nH]c(=O)c1F [Example 80]" measurement=7.66
molecule="O=C(NCc1ccc(C(F)(F)F)c(-c2nc(C(F)(F)F)cc(=O)[nH]2)c1F)C1CCN(c2ncc(Cl)cc2Cl)CC1 [Example 30]" measurement="> 9.00"
molecule="Cc1cc(=O)[nH]c(-c2c(C(F)(F)F)ccc(CNC(=O)C3CCN(c4ccc(Cl)c(Cl)c4)CC3)c2F)n1 [Example 86]" measurement="> 9.00"
molecule="O=c1cc(C(F)(F)F)nc(-c2c(C(F)(F)F)ccc(CNC(=O)[C@H]3CC[C@H](OCc4ccc(Cl)cc4F)CC3)c2F)[nH]1 [Example 118]" measurement="> 9.00"
molecule="O=C(NCc1ccc(C(F)(F)F)c(-c2nc(C(F)(F)F)cc(=O)[nH]2)c1F)C1CCN(c2ccc(C(F)(F)F)nc2)CC1 [Example 21]" measurement="> 9.00"
molecule="Cc1cc(=O)[nH]c(-c2c(C(F)(F)F)ccc(CNC(=O)[C@H]3CC[C@H](OCc4cc(F)cc(F)c4)CC3)c2F)n1 [Example 120]" measurement=7.96

Query: Could you tell me which pIC50 is on file for O=c1cc(C(F)(F)F)nc(-c2c(C(F)(F)F)ccc(CNC(=O)[C@H]3C[C@@H](OCc4cccc(Cl)c4)C3)c2F)[nH]1 (stereo in doubt) [Example 139] ?
Reply: > 9.00

Query: Same read-out for O=c1cc(C(F)(F)F)nc(-c2c(C(F)(F)F)ccc(CNC(=O)[C@H]3C[C@H](OCc4ccccc4C(F)(F)F)C3)c2F)[nH]1 [Example 142] ?
Reply: > 9.00

Query: Same read-out for O=C(NCc1ccc(C(F)(F)F)c(-c2nc(C(F)(F)F)cc(=O)[nH]2)c1F)C1CCN(c2ccc(F)cc2)CC1 [Example 58] ?
Reply: > 9.00
